Experiment: soluble on expression in E. coli; label from the status in PepcDB or PDB records
observation.type: soluble on expression in E. coli

Take a look at these entries with their results.
MGSDKIHHHHHHMLNDFVDRCVWAADLSAEQRDRVRRAMFVREYTQGDYVCHKGEIAEHWLGVLEGIVKITTVSPSGKSVTFTGVPTGGWFGEGAVLKSEIRKYDVMALRRSTIAFLPRDTFQWLLDTSLPFTRFLLTQFNERLGQFIAAVEYERLLDIDSRVARAVSSLFNEHLYPGIGNTLEISQEEIGLLAGISRQRANQALKVLEQQGLVRVDYGVIEVLDLEGLRQYGE; not soluble
MAHHHHHHMSTNISPNIKKGGVTAADLMQLQGAALRLRSQCTQREADNRRLTQKLREYEEQLFFLRANELILRKQVSVWSSYHRLFAQPLYEARLAVERYKHEAHQSLVHEMQVDRQRRSSLANAANEKRERERAGLQARLRQLQELQDEKRKKNEELELRLRRASEESLRAQKQASKLKDELAYCMDRLEESERERERVKRHLSEHEAALLKARHNVAGMGHFEEEIRSRDTVIAQLQRTVRELNTIMAQQSASRLEEANGENTPPQHEAEEKKLAASPQRLLNDSCDSEWVLKQSIGWFRSKMEREMKPSTPRRQMFEPCSSSAHPAPSLSSFSWMEGRCDSGDVDLQEFLSRELQAPLL; not soluble
MAKSLTFSTFSPNNTLKKNVIPIVLLHGWGLNSGVWQPLLELFHRNDESIYQLITIDLPGFGINSAVDIKPYSLANICHHIEQVIDQPAIYLGWSLGGLIATEMSLKYPEKVLASITVASSPYFVEQPTDNWPGIKENVLESFHKQLAQDTAKTISGFLKIQAMGSPHIRQDLKLITQLVMAHTLPSQQTLADSLALLSNSDLRLHLSKIKQPLLRLYGHNDSLVPKEVMEKISYLAPNSDQHLFADASHAPFISHLDDFYQVLVVWLDSHFNLEHHHHHH; not soluble
MNSTYQLFIDVTSRKCILAIYKNFKIHTSIIVDTNNNLTDIIVEHLNNLLKITNLQYQDLEAIYLNTGPGSFTGIRVGAIVAKTICTIFNKIKLFINDSLNIIANGKNDVFVYLDAKGNKSYVITITNNIQNEYKIITNKELQNELKNTSLTIIDANQIDYHDLIYNLKFDNFKLTNILDFRLNYVKKPLNLEHHHHHH; not soluble
NLSASNRALPVLTLFTKAPCPLCDEAKEVLQPYKDRFILQEVDITLPENSTWYERYKFDIPVFHLNGQFLMMHRVNTSKLEKQLRKL; soluble
MENIFLKRLEFKAFEEDSVFSKIEGLNKFNSLNFKKPITFFSGENGTGKSTLLEAIAVNWGFNPEGGSINFNFSTKDTHLDLHNYLTVGKSVKRATDGFFLRAESFYNVATYAENIDLDFSEYGDKSLHHQSHGESFLNLVNHRFRGNGLYLLDEPEAALSPQRQLALMISIKKLIDEGSQFIIVSHSPILLAMPDSQIISFDKDSPLEITYEESMPYEITSLFLNNKNRILSHLFAELEHHHHHH; soluble

Now turn to the next sequence.
Specify soluble on expression in E. coli for MITQGPNLIGIHANEKENIETKKFVNWFLNQSITDWNSNNQQKNSDQTTKTAAEYFTDQASYILPLKEKFNKSSDLELKGSSSSSNLTTSSASASLLISNNSSTASSPAPKKTNNNSNTFTAKALELFQQAANNEIIPFSDPSDFRNGTFRNNISSSFNAAVNSK and stop.
soluble
